These data points were gathered from paper PMC9482650.

# TARGET_OF_ASSAY: PDZRN4_1, Q6ZMN7
# Sequence (Q6ZMN7 213-318): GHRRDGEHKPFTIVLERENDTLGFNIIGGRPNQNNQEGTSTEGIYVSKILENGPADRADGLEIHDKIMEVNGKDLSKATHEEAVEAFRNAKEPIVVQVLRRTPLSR
# ASSAY_METHOD_TEXT: holdup assay
# Set-up: key: below the threshold = too weak to quantify, mostly under pKd 3.1 to 4
# CONDITIONS: plain residues with an end cap or a label only (N-terminal biotin on a linker: ttds)
TEST_READOUT: pKd
# output: bare number, no unit

>>> value_reported("IDNDTESTAL [ARHGAP17, Q68EM7]")
4.26
>>> value_reported("IYVPEAQTRL [DLGAP4, Q9Y2H0]")
4.08

Lookup result for SRPQRTQTQV [HPV67-E6, A4U7F2] ; measured pKd: 3.82

Note to self: pKd recorded for GQDSREETQL [KCNT2, Q6UVM3] was 4.97
